# particulars: buffer; pH 7.4; 200.0 µM
reported-metric: solubility kinetic (µg/mL)
Please respond with the number in µg/mL and leave the unit unwritten.

In the examples that follow, each entry is paired with its recorded solubility kinetic.
                           structure_smiles  scale_unit  value_reported
0       NC(=O)NC(=O)COC(=O)c1ccc(OC(F)F)cc1       µg/mL             9.9
1               O=C(CCOc1ccc(F)cc1)Nc1nccs1       µg/mL             5.6
2      Cc1cc(/C(N)=N/OC(=O)c2cccc(Cl)c2)no1       µg/mL             2.2
3  CCN(CC)CCCN(C(=O)c1ccc(F)cc1)c1nc(-c2ccc(OC)cc2)cs1       µg/mL            62.1

Query string: I am curious: what solubility kinetic value has been reported for `Cc1cccc(NC(=O)Nc2cnccn2)c1C` ?
Result string: 1.9

----------
# particulars: buffer; pH 7.4; 200.0 µM
Quick rule: solubility kinetic of at least 10 µg/mL means Y, below that means N.

Solved entries (count: 6):
                                   molecule  class
0            Cc1cc(Cl)ccc1Oc1ncnc2onc(C)c12      N
1           O=C(Nc1nc2ccccc2[nH]1)NC1CCCCC1      N
2                   Cc1cc(Cl)c2ccc(Cl)cc2n1      N
3      O=C(Nc1ccccc1O)c1ccc(NC(=O)C2CC2)cc1      N
4    CCN(CC(=O)Nc1cc(Cl)ccc1C)C(=O)CC1CCCC1      Y
5  Cc1ccc(N2C(=O)CC(Cc3cc(C)cc(C)c3)C2=O)cc1 (stereo not given)      N

Query string: Check if solubility kinetic >= 10 µg/mL (inclusive). Item: `Cc1cc(C)n2nc(SCC(=O)N3CCC(C)CC3)nc2n1`
Result string: Y

Query string: Check if solubility kinetic >= 10 µg/mL (inclusive). Item: CCC(C(=O)OCC(=O)NCc1ccc2c(c1)OCO2)c1ccccc1 (stereo not given)
Result string: Y

----------
# particulars: buffer; pH 7.4; 200.0 µM
reported-metric: solubility kinetic (µg/mL)
Please respond with the number in µg/mL and leave the unit unwritten.

In the examples that follow, each entry is paired with its recorded solubility kinetic.
                                   compound  value_reported
0  CC(C)C(=O)Nc1cc(S(=O)(=O)N2CCOCC2)ccc1N1CCCCC1              49
1       Cc1ccc(C(=O)COc2nc(C)nc3ccccc23)cc1             4.3
2             Oc1ccc(NC(=S)Nc2ccc(F)cc2)cc1            33.2

Query string: I am curious: what solubility kinetic value has been reported for `Cc1cc(SCC(=O)c2cccc([N+](=O)[O-])c2)nc(=O)[nH]1` ?
Result string: 24.3

Query string: I am curious: what solubility kinetic value has been reported for `CC(=O)Nc1ccc(/C=C/c2ccc3c([N+](=O)[O-])cccc3n2)cc1` ?
Result string: 16.2

Query string: I am curious: what solubility kinetic value has been reported for `Cc1ccnc(NC(=O)c2cccc(OC(F)F)c2)n1` ?
Result string: 39.9

Query string: I am curious: what solubility kinetic value has been reported for COC(=O)C(C)N=Cc1ccccc1 (stereo not drawn) ?
Result string: 21

Query string: I am curious: what solubility kinetic value has been reported for `Cc1cc(C(=O)N2CCC(Cc3ccccc3)CC2)c(C)o1` ?
Result string: 41.6

Query string: I am curious: what solubility kinetic value has been reported for Cc1ccc2c(C(=O)CN3CC(C)CC(C)C3)c(C)[nH]c2c1 (stereo not drawn) ?
Result string: 38.6

Data provenance is PubChem BioAssay AID1996.
